MEASUREMENT DESCRIPTION: Stability of the test compounds in the culture medium (HPLC)
Assay type: physicochemical
CONDITION LABEL: quiescent glioblastoma stem cell culture medium (no cells), 10 μM, 1% DMSO, 37° C., HPLC; read-out: half-life in the medium of the quiescent cells (converted)
ASSAY ENDPOINT: half-life at 10 μM

>>> df
                               smiles_input      assay_endpoint  measurement
0  CC(=O)Oc1ccc(C(c2ccc(OC(C)=O)cc2)c2ccccn2)cc1  half-life at 10 μM          4 h

---

Each entry below carries its recorded pEC50.
Test system: proliferating TG1 glioblastoma stem cells
MEASUREMENT DESCRIPTION: ATP-Glo (Cell Titer Glo) cell viability, dose/response, proliferating TG1 cells
Type: cell-based, human
CONDITION LABEL: Homo sapiens, Glioblastoma stem cell; TG1-A P; experimental protocol of Example 12; 24 h, ATP-Glo
pEC50: −log10 of the molar value.
ASSAY ENDPOINT: pEC50

In [3]: df
Out[3]:
                                    compound                               target_desc  measurement
 0  C#CCOc1ccc(C(c2ccc(O)cc2)c2ccccn2)cc1 (centres unmarked)  proliferating TG1 glioblastoma stem cells         4.41
 1       Clc1ccc(C(c2ccc(Cl)cc2)c2ccccn2)cc1  proliferating TG1 glioblastoma stem cells         4.47
 2     Oc1ccc(C(c2ccc(O)cc2)c2cncc(Br)c2)cc1  proliferating TG1 glioblastoma stem cells       < 4.00
 3  Oc1ccc(C(c2ccc(C(F)(F)F)cc2)c2ccccn2)cc1 (centres unmarked)  proliferating TG1 glioblastoma stem cells       < 4.00
 4             c1ccc(C(c2ccccc2)c2ccccn2)cc1  proliferating TG1 glioblastoma stem cells       < 4.00
 5  Oc1ccc(C(c2ccccc2)c2ccccn2)cc1 (centres unmarked)  proliferating TG1 glioblastoma stem cells       < 4.00
 6  CCCCCCCCCOc1ccc(C(c2ccc(O)cc2)c2ccccn2)cc1 (centres unmarked)  proliferating TG1 glioblastoma stem cells         4.60
 7  Oc1ccc(C(c2ccc(O)cc2)c2ccccn2)cc1 [drawing 52]  proliferating TG1 glioblastoma stem cells       < 4.00
 8         Oc1ccc(C(c2ccc(O)cc2)c2cccnc2)cc1  proliferating TG1 glioblastoma stem cells       < 4.00
 9  CCCCCCCCCOc1ccc(C(c2ccc(OC(C)=O)cc2)c2ccccn2)cc1 (centres unmarked)  proliferating TG1 glioblastoma stem cells         4.59
10  CC(=O)Oc1ccc(C(c2ccc(O[Si](C)(C)C(C)(C)C)cc2)c2ccccn2)cc1 (centres unmarked)  proliferating TG1 glioblastoma stem cells         4.92
11  Oc1ccc(C(c2ccc(Cl)cc2)c2ccccn2)cc1 (centres unmarked)  proliferating TG1 glioblastoma stem cells       < 4.00
12  CC(=O)Oc1ccc(C(c2ccc(OC(C)=O)cc2)c2ccccn2)cc1 [drawing 51]  proliferating TG1 glioblastoma stem cells       < 4.00
13        Nc1ncccc1C(c1ccc(O)cc1)c1ccc(O)cc1  proliferating TG1 glioblastoma stem cells       < 4.00
14  COc1ccc(C(c2ccc(O)cc2)c2ccccn2)cc1 (centres unmarked)  proliferating TG1 glioblastoma stem cells       < 4.00
15  CCCC(C)Oc1ccc(C(c2ccc(O)cc2)c2ccccn2)cc1 (centres unmarked)  proliferating TG1 glioblastoma stem cells         4.26
16  O=C(Oc1ccc(C(c2ccc(OC(=O)C(F)(F)F)cc2)c2ccccn2)cc1)C(F)(F)F [drawing 57]  proliferating TG1 glioblastoma stem cells       < 4.00
17  CC(=O)Oc1ccc(C(c2ccc(O)cc2)c2ccccn2)cc1 (centres unmarked)  proliferating TG1 glioblastoma stem cells       < 4.00
18         Oc1ccc(C(c2ccccc2)c2ccc(O)cc2)cc1  proliferating TG1 glioblastoma stem cells         4.22
19         Oc1ccc(C(c2ccncc2)c2ccc(O)cc2)cc1  proliferating TG1 glioblastoma stem cells       < 4.00
20  COc1ccc(C(c2ccc(OC(C)=O)cc2)c2ccccn2)cc1 (centres unmarked) [drawing 60]  proliferating TG1 glioblastoma stem cells       < 4.00
21  CC(C)(C)[Si](C)(C)Oc1ccc(C(c2ccc(O)cc2)c2ccccn2)cc1 (centres unmarked)  proliferating TG1 glioblastoma stem cells         4.89
22  Oc1ccc(C(c2ccccn2)c2ccccc2O)cc1 (centres unmarked)  proliferating TG1 glioblastoma stem cells       < 4.00
